Assay: in vivo
Parameters: species or system Swiss Webster mice
Details: female, ND4 Swiss Webster, mouse, po, 100 mg/kg
Measurement Label: AUC (ng·h/mL)
Enter your answer as a number in ng·h/mL; do not include the unit.

Query: Query AUC for OC[C@H]1O[C@@H](n2cnc3c(N4CCN(c5ccc(-c6ccccc6)cc5)CC4)ncnc32)[C@H](O)[C@@H]1O [Compound 18]
Reply: 15300

----------
Consider the following compounds; for each one, report its pEC50.
Test system: Mtb mc^2 7000
Experiment: Antimycobacterial assay (MABA)
Format: cell-based
Settings: Mycobacterium tuberculosis, 192 h; Mtb mc^2 7000, MABA, 6 days + 2 days resazurin
pEC50: −log10 of the molar value.

Query: Give the reported value of pEC50 for this record: CS(=O)(=O)Nc1ccc(NC[C@H]2O[C@@H](n3cnc4c(N5CCN(c6ccc(C(F)(F)F)cc6)CC5)ncnc43)[C@H](O)[C@@H]2O)cc1 [Compound 22]
Reply: < 4.30

Query: Using known records, supply pEC50 for O=[N+]([O-])c1ccc(NC[C@H]2O[C@@H](n3cnc4c(N5CCN(c6ccc(C(F)(F)F)cc6)CC5)ncnc43)[C@H](O)[C@@H]2O)cc1 [Compound 20]
Reply: ≤ 4.30

Query: Give pEC50 for the following compound: OC[C@H]1O[C@@H](n2cnc3c(N4CCN(c5ccc(-c6ccccc6)cc5)CC4)ncnc32)[C@H](O)[C@@H]1O [Compound 18]
Reply: ~5.40

Query: Given O[C@@H]1[C@H](O)[C@@H](CNc2ccc(F)cc2)O[C@H]1n1cnc2c(N3CCN(c4ccc(C(F)(F)F)cc4)CC3)ncnc21 [Compound 24] , respond with its pEC50.
Reply: < 4.30

Query: Provide measured pEC50 value, entry: Cc1ccc(S(=O)(=O)NC[C@H]2O[C@@H](n3cnc4c(N5CCN(c6ccc(C(F)(F)F)cc6)CC5)ncnc43)[C@H](O)[C@@H]2O)cc1 [Compound 19]
Reply: < 4.30

Query: Please give measured pEC50 of the following entry: O=C(NC[C@H]1O[C@@H](n2cnc3c(N4CCN(c5ccc(C(F)(F)F)cc5)CC4)ncnc32)[C@H](O)[C@@H]1O)c1ccccc1 [Compound 21]
Reply: < 4.30

Query: Could you please provide reported pEC50 for O[C@@H]1[C@H](O)[C@@H](COCc2ccccc2)O[C@H]1n1cnc2c(N3CCN(c4ccc(-c5ccccc5)cc4)CC3)ncnc21 [Compound 23] ? Thanks!
Reply: < 4.30

----------
Test: in vivo
Parameters: species or system Swiss Webster mice
Conditions: female, ND4 Swiss Webster, mouse, po, 50 mg/kg, tmax
Measurement Label: Tmax

Query: Report Tmax for "OC[C@H]1O[C@@H](n2cnc3c(N4CCN(c5ccc(-c6ccccc6)cc5)CC4)ncnc32)[C@H](O)[C@@H]1O"
Reply: ~4 h

----------
Assay: in vivo
Set-up: species or system Swiss Webster mice
Conditions: female, ND4 Swiss Webster, mouse, po, 50 mg/kg
Measurement Label: AUC (ng·h/mL)
Respond with the bare value in ng·h/mL.

Query: Hello, please tell me recorded AUC for this one: OC[C@H]1O[C@@H](n2cnc3c(N4CCN(c5ccc(-c6ccccc6)cc5)CC4)ncnc32)[C@H](O)[C@@H]1O [Compound 18]
Reply: 9800

----------
Assay: in vivo
Set-up: species or system Swiss Webster mice
Conditions: female, ND4 Swiss Webster, mouse, po, 100 mg/kg, tmax
Measurement Label: Tmax

Query: # return recorded Tmax for input "OC[C@H]1O[C@@H](n2cnc3c(N4CCN(c5ccc(-c6ccccc6)cc5)CC4)ncnc32)[C@H](O)[C@@H]1O"
Reply: ~4 h
